System: HCT116 WT cells
Experiment: HCT116 WT cell proliferation / viability (CellTiter-Glo, 6 days)
Format: cell-based
Conditions: Homo sapiens, HCT-116, 144 h, HCT116 WT cells, 6 days, CellTiter-Glo; read-out: HCT-116 WT IC50
measured-quantity: IC50 (µM)

Sample records with IC50:
# compound, test-system, IC50, µM
measured = [
    ("C[C@H](c1ccc(C(F)(F)F)cn1)N(C)C(=O)c1ccc2nc(N)c3c(c2c1)CO[C@@H]3C (single isomer, unassigned)", "HCT116 WT cells", 4),
    ("Nc1nc2cnc(C(=O)N(Cc3ccc(C(F)(F)F)cc3)C3CC3)cc2c2c1COC2", "HCT116 WT cells", 14.4),
    ("C[C@H](c1ccc(C(F)(F)F)nn1)N(C)C(=O)c1cc2c(cc1F)nc(N)c1cnn(C)c12 (single isomer, unassigned)", "HCT116 WT cells", 0.793),
    ("Cn1cc(N(Cc2ccc(C(F)(F)F)cn2)C(=O)c2cc3c4c(c(N)nc3cn2)CCC4)cn1", "HCT116 WT cells", 0.622),
]

a. C[C@H](c1ccc(C(F)(F)F)cc1)N(C)C(=O)c1cc2c3c(c(N)nc2cc1F)[C@@H](C)OC3 (single isomer, unassigned)
b. CC(C)N(Cc1ccc(C2CC2)cn1)C(=O)c1cc2c(cc1F)nc(N)c1c2cnn1C
c. CN(Cc1ccc(C2CC2)nn1)C(=O)c1cc2c(cc1F)nc(N)c1c2cnn1C
d. C[C@H]1OCc2c1c(N)nc1ccc(C(=O)N(Cc3ccc(C(F)(F)F)nn3)CC3CC3)cc21
e. CC1OCc2c1c(N)nc1ccc(C(=O)N(Cc3ccc(C(F)(F)F)cn3)C3CC34CCCC4)cc21 (stereo not drawn)
# rank by IC50, ascending (min first) Reply format: the labels, ordered as requested.
b, a, d, e, c
(b: 0.38 µM, a: 0.849 µM, d: 1.41 µM, e: 8 µM, c: 45.4 µM)

----------
System: HCT116 WT cells
Test: HCT116 WT cell proliferation / viability (CellTiter-Glo, 6 days)
Format: cell-based
Details: Homo sapiens, HCT-116, 144 h, HCT116 WT cells, 6 days, CellTiter-Glo; read-out: HCT-116 WT IC50
pIC50: −log10 of the molar value.
measured-quantity: pIC50

# compound, pIC50
records = [
    ("CN(Cc1ccc(C(F)(F)F)nc1F)C(=O)c1cc2c(cc1F)nc(N)c1cnn(C)c12", 5.11),
    ("Cn1cc(N(Cc2ccc(C(F)(F)F)cn2)C(=O)c2ccc3nc(N)c4cnn(C)c4c3c2)cn1", 5.88),
    ("CN(Cc1ccc(S(F)(F)(F)(F)F)cc1)C(=O)c1cc2c(cc1F)nc(N)c1c2cnn1C", 5.47),
]

P. Cn1ncc2c(N)nc3ccc(C(=O)N(Cc4ccc(C(F)(F)F)cn4)C4CC4)cc3c21
Q. CC(C)N(Cc1ccc(C2CC2)cn1)C(=O)c1ccc2nc(N)c3c(c2c1)COC3
R. CC1OCc2c1c(N)nc1ccc(C(=O)N(Cc3ccc(C(F)(F)F)cn3)[C@H](C)c3ncccn3)cc21 (stereo partly drawn)
S. C[C@@H](c1ccc(F)cn1)N(C)C(=O)c1cc2c(cc1Cl)nc(N)c1cnn(C)c12 (single isomer, unassigned)
# rank by pIC50, ascending (min first) Reply format: the labels, ordered as requested.
S, P, Q, R
(S: 4.54, P: 5.41, Q: 5.75, R: 6.76)

----------
System: HCT116 WT cells
Assay: HCT116 WT cell proliferation / viability (CellTiter-Glo, 6 days)
Type: cell-based
Conditions: Homo sapiens, HCT-116, 144 h, HCT116 WT cells, 6 days, CellTiter-Glo; read-out: HCT-116 WT IC50
measured-quantity: IC50 (µM)

Sample records with IC50:
# compound, measured-quantity, data-value
measured = [
    ("Nc1nc2ccc(C(=O)N(Cc3ccc(C(F)(F)F)nn3)C3CC3)cc2c2c1COC2 [Example 661]", "IC50", 26.2),
    ("CC1(CN(Cc2ccc(C(F)(F)F)cn2)C(=O)c2cc3c4c(c(N)nc3cn2)COC4)CC1 [Example 398]", "IC50", 1.39),
    ("COC[C@@H](C)N(Cc1ccc(Br)nn1)C(=O)c1cnc2nc(N)c3c(c2c1)COC3 [Example 681]", "IC50", 6.49),
]

a. CCN(Cc1ccc(C(F)(F)F)cn1)C(=O)c1cc2c3c(c(N)nc2cc1Cl)COC3 [Example 420]
b. C[C@H](c1ncccn1)N(Cc1ccc(C#N)c(Cl)n1)C(=O)c1ccc2nc(N)c3c(c2c1)COC3 [Example 679]
c. Nc1nc2ccc(C(=O)N(Cc3ccc(C(F)(F)F)cn3)c3cccc(F)c3)cc2c2c1COC2 [Example 883]
# rank by IC50, ascending (min first) Reply format: the labels, ordered as requested.
b, c, a
(b: 0.108 µM, c: 0.514 µM, a: 8.36 µM)

----------
Test system: HCT116 WT cells
Test: HCT116 WT cell proliferation / viability (CellTiter-Glo, 6 days)
Assay type: cell-based
Conditions: Homo sapiens, HCT-116, 144 h, HCT116 WT cells, 6 days, CellTiter-Glo; read-out: HCT-116 WT IC50
pIC50: −log10 of the molar value.
measured-quantity: pIC50

# molecule, pIC50
data = [
    ("CCN(Cc1ccc(C(F)(F)F)nn1)C(=O)c1ccc2nc(N)c3c(c2c1)COC3 [Example 695]", 5.30),
    ("COCC(C)N(Cc1ccc(C(F)(F)F)nn1)C(=O)c1cc2c3c(c(N)nc2cn1)COC3 (racemic) [Example 390]", 5.00),
    ("CCN(C(=O)c1cc2c3c(c(N)nc2cn1)COC3)[C@H](C)c1ccc(C(F)(F)F)cn1 (single isomer, unassigned) [Example 823]", 4.79),
    ("CC1OCc2c1c(N)nc1ccc(C(=O)N(Cc3ccc(C(F)(F)F)cn3)C3CCOCC3C)cc21 (centres unmarked) [Example 901]", 6.37),
    ("CC(C)N(Cc1ccc(C(F)(F)F)nn1)C(=O)c1cc2c3c(c(N)nc2cc1F)COC3 [Example 358]", 5.09),
    ("CN(Cc1ccc(C2=CCOCC2)cn1)C(=O)c1ccc2nc(N)c3c(c2c1)COC3 [Example 429]", 4.50),
    ("Cn1ncc2c(N)nc3cc(F)c(C(=O)N(Cc4ccc(C(F)(F)F)cn4)C4CC4)cc3c21 [Example 803]", 6.42),
    ("CCN(C(=O)c1cc2c3c(c(N)nc2cc1F)[C@H](C)OC3)[C@H](C)c1ccc(C(F)(F)F)nn1 [Example 785]", 4.70),
    ("CCN(C(=O)c1cc2c3c(c(N)nc2cc1F)COC3)C(C)c1ccc(C(F)(F)F)cn1 (racemic) [Example 719]", 4.66),
    ("COc1ccc(CN(C(=O)c2ccc3nc(N)c4c(c3c2)CCC4)[C@@H](C)c2ncccn2)nn1 (single isomer, unassigned) [Example 647]", 5.38),
]

1. COCC(C)N(Cc1ccc(C(F)(F)F)nn1)C(=O)c1ccc2nc(N)c3c(c2c1)CO[C@@H]3C (mixture of isomers) [Example 304]
2. CN(Cc1ccc(Cl)cn1)C(=O)c1ccc2nc(N)c3cnn(C)c3c2c1 [Example 523]
Compare pIC50: is it lower for 1 or for 2 ? Provide the label of your selected option as the answer.
2

----------
Test system: HCT116 WT cells
Test: HCT116 WT cell proliferation / viability (CellTiter-Glo, 6 days)
Type: cell-based
Conditions: Homo sapiens, HCT-116, 144 h, HCT116 WT cells, 6 days, CellTiter-Glo; read-out: HCT-116 WT IC50
measured-quantity: IC50 (µM)

# molecule, test-system, data-value
data = [
    ("C[C@@H]1OCc2c1c(N)nc1cnc(C(=O)N(Cc3ccc(C(F)(F)F)cn3)c3cnn(C)c3)cc21 (single isomer, unassigned)", "HCT116 WT cells", 47.2),
    ("Cn1ncc2c(N)nc3cc(F)c(C(=O)N(Cc4cocn4)C4CCC4)cc3c21", "HCT116 WT cells", 13.6),
    ("CCOc1ccc(CN(C(=O)c2cc3c4c(c(N)nc3cn2)COC4)[C@H](C)c2ncccn2)nn1", "HCT116 WT cells", 3.35),
    ("COCC(C)N(Cc1ccc(C(F)(F)F)cn1)C(=O)c1ccc2nc(N)c3c(C)noc3c2c1 (racemic)", "HCT116 WT cells", 0.953),
]

P. CCN(Cc1ccc(C(F)(F)F)cn1)C(=O)c1ccc2nc(N)c3c(c2c1)CO[C@@H]3C
Q. CC(C)N(Cc1ccc(C(F)(F)F)cc1)C(=O)c1cc2c3c(c(N)nc2cn1)COC3
Compare IC50: is it lower for P or for Q ? Provide the label of your selected option as the answer.
P
(P: 3.07 µM, Q: 6.3 µM)

Where do the numbers come from? From patent US20240101570A1.
